Protein target, amino acids: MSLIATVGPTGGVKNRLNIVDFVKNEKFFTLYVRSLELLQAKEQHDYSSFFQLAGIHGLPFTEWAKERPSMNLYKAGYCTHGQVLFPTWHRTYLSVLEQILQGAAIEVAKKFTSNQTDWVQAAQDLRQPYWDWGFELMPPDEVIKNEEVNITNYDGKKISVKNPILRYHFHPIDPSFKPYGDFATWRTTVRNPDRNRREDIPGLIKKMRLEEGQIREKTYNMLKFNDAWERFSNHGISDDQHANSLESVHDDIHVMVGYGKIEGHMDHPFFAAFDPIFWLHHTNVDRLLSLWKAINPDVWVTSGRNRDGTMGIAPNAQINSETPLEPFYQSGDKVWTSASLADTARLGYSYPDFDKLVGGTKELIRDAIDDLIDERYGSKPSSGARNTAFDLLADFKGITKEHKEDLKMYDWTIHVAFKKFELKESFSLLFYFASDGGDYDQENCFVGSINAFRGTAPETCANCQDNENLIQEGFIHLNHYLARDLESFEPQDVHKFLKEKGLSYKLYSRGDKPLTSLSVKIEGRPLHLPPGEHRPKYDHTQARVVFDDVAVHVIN
pIC50: −log10 of the molar value.
Literature roundup of the protein given by its sequence data, read-out pIC50.

compound: CC(/C=C/C=C(\C)C(=O)O)=C\C=C\C=C(C)\C=C\C=C(/C)C(=O)O[C@@H]1O[C@H](CO[C@@H]2O[C@H](CO)[C@@H](O)[C@H](O)[C@H]2O)[C@@H](O)[C@H](O)[C@H]1O
bound-operator: =
pIC50: 3.02
//
compound: CC(=O)c1c2c(c3ccccc3c1O)O[C@H]1OCCC[C@@H]21 (relative stereo)
bound-operator: =
pIC50: 3.75
//
compound: CCCCOc1ccc(C/C(C)=N/NC(=S)NN)cc1
bound-operator: =
pIC50: 3.65
//
compound: COc1ccc(C(=O)N/N=C/c2ccc(O)cc2)cc1OC
bound-operator: <
pIC50: 4.30
//
compound: COP(=O)(OC)OC[C@H]1O[C@@H](Oc2ccc(C=O)cc2)[C@H](O)[C@H](O)[C@@H]1O
bound-operator: =
pIC50: 3.37
//
compound: Oc1ccccc1C(O)/C=C/c1ccncc1 (configuration not stated)
bound-operator: =
pIC50: 5.64
//
compound: CCCCOC1Cc2c(C(C)=O)c(O)c3ccccc3c2O1 (configuration not stated)
bound-operator: =
pIC50: 3.63
//
compound: CCOc1cc(=O)c(C[C@@H](OC(=O)/C=C/c2ccc(O)c(O)c2)C(=O)O)coc1=O
bound-operator: =
pIC50: 4.10
//
compound: CC(C)(C)OC(=O)CCc1ccc(O)cc1O
bound-operator: =
pIC50: 4.83
//
compound: S=C(Nc1ccccc1)Nc1ccc(Cl)cc1
bound-operator: <
pIC50: 4.00
//
compound: CC(=O)Oc1ccc2ccccc2c1/N=N/c1ccc(C2=N/C(=C/c3ccc(OC(F)(F)F)cc3)C(=O)O2)cc1
bound-operator: =
pIC50: 5.52
//
compound: COc1ccccc1-c1nnc(SCC(=O)Nc2ccc(F)cc2)o1
bound-operator: =
pIC50: 7.74
//
compound: Oc1cc(O)cc(-c2ccc3cc(O)cc(O)c3c2)c1
bound-operator: =
pIC50: 6.31
//
compound: CCC(=O)Nc1ccc(/C(C)=N/NC(N)=S)cc1
bound-operator: =
pIC50: 6.43
//
compound: C/C(=N\NC(N)=S)c1ccc(NC(=O)C(F)(F)F)cc1
bound-operator: =
pIC50: 5.87
//
compound: O=C(NO)Nc1ccc(OCc2ccccc2)cc1
bound-operator: =
pIC50: 5.20
//
compound: COc1cc(C2CC(c3ccc(O)cc3O)=NN2)ccc1O (configuration not stated)
bound-operator: =
pIC50: 5.61

* * *

We begin with IC50 values for Tyrosinase (Agaricus bisporus, UniProt O42713), as collected from the published literature.

compound: O=C1NC(=S)S/C1=C\c1ccc(OCCO)c(OCCO)c1
bound-operator: =
IC50 / µM: 5690
--
compound: O=C(O)c1cccc(=O)[nH]1
bound-operator: =
IC50 / µM: 159
--
compound: S=c1oc(Cc2cccc3ccccc23)nn1CN1CCNCC1
bound-operator: =
IC50 / µM: 0.87
--
compound: CCO[C@@H]1Oc2c(c(C(C)=O)c(O)c3ccccc23)[C@@H]1C (relative stereo)
bound-operator: >
IC50 / µM: 349
--
compound: COc1cc(OC)cc(-c2nc(-c3ccc(O)cc3O)cs2)c1
bound-operator: =
IC50 / µM: 2
--
compound: O=C(OCc1cccc(O)c1)c1ccc(O)cc1O
bound-operator: =
IC50 / µM: 6.23

* * *

This section presents IC50 values reported for Tyrosinase (Agaricus bisporus, UniProt O42713) in the literature.

compound: CO/N=C\c1ccc(O[C@@H]2OC[C@@H](OC(=O)c3ccccc3)[C@H](OC(=O)c3ccccc3)[C@H]2OC(=O)c2ccccc2)cc1
unit-abbrev: µM
bound-operator: >
IC50: 200
--
compound: O=c1c(O)c(-c2ccc(O)cc2)oc2cc(O)cc(O)c12
unit-abbrev: µM
bound-operator: >
IC50: 100
--
compound: COc1ccc(C(=O)N/N=C/c2ccc([N+](=O)[O-])cc2)cc1OC
unit-abbrev: µM
bound-operator: >
IC50: 50
--
compound: O=C(O)CSc1nnc(NC(=S)Nc2ccc(F)cc2)s1
unit-abbrev: µM
bound-operator: =
IC50: 20.9
--
compound: COc1cc(-c2ccc(C(=O)NCc3ccccc3)c(O)c2)cc(OC)c1O
unit-abbrev: µM
bound-operator: =
IC50: 30
--
compound: COc1ccc(C(=O)N/N=C/c2cccc([N+](=O)[O-])c2)cc1OC
unit-abbrev: µM
bound-operator: >
IC50: 50
--
compound: COC(=O)[C@@]12CO[C@@]3(O)[C@H]1CCN1CC[C@H]3[C@@H]1c1c2[nH]c2ccccc12
unit-abbrev: µM
bound-operator: >
IC50: 100
--
compound: COc1cc(OC)cc(C(=O)OC[C@H]2O[C@H]3c4c(cc(OC)c(OC)c4OC)C(=O)O[C@@H]3[C@@H](O)[C@@H]2O)c1
unit-abbrev: µM
bound-operator: >
IC50: 100
--
compound: O=c1oc2c(O)cc(Br)cc2cc1-c1ccccc1
unit-abbrev: µM
bound-operator: =
IC50: 302
--
compound: NC(=S)NCCCc1ccccc1
unit-abbrev: µM
bound-operator: =
IC50: 64.8
--
compound: C=C(CO)[C@@H]1CC[C@]2(C(=O)O)CC[C@]3(C)[C@H](C[C@@H](O)[C@@H]4[C@@]5(C)CC[C@@H](O)[C@@](C)(C=O)[C@@H]5CC[C@]43C)[C@@H]12
unit-abbrev: µM
bound-operator: =
IC50: 63.5
--
compound: C/C=N\NC(N)=S
unit-abbrev: µM
bound-operator: =
IC50: 0.23
--
compound: CCC1NC(=S)NC(C)=C1C(C)=O (stereo unspecified)
unit-abbrev: µM
bound-operator: =
IC50: 10700
--
compound: S=c1oc(Cc2cccc3ccccc23)nn1CN1CCOCC1
unit-abbrev: µM
bound-operator: =
IC50: 1.34
--
compound: CCCCC(=O)NC(=S)Nc1ccc(Cl)cc1
unit-abbrev: µM
bound-operator: =
IC50: 2.32
--
compound: COC(=O)C(Cc1ccccc1)NC(=O)COc1ccc(C=O)cc1 (stereo unspecified)
unit-abbrev: µM
bound-operator: =
IC50: 480
--
compound: O=C(O)CSc1nnc(NC(=S)Nc2ccc(F)c(Cl)c2)s1
unit-abbrev: µM
bound-operator: =
IC50: 33.9
--
compound: CCOC(=O)COc1ccc(CC/C(C)=N/NC(N)=S)cc1
unit-abbrev: µM
bound-operator: =
IC50: 0.515
--
compound: CN(C)c1ccc(C2CC(c3cc4ccccc4o3)=NN2C(=O)Nc2ccc(Cl)cc2)c2ccccc12 (stereo unspecified)
unit-abbrev: µM
bound-operator: =
IC50: 4.72
--
compound: COc1cc(-c2cccc(O)c2)cc(OC)c1O
unit-abbrev: µM
bound-operator: =
IC50: 90
--
compound: Cc1ccc(C(C)C)cc1O
unit-abbrev: µM
bound-operator: >
IC50: 500

* * *

Please find below IC50 data on Tyrosinase (Agaricus bisporus, UniProt O42713) compiled from the literature.
# thresholds on IC50 define classes: LOW (below 0.6 µM), MID (0.6 µM to below 10 µM), HIGH (10 µM or more)

molecule: CC(C)/C=N\NC(N)=S
class: MID
//
molecule: OC[C@H]1O[C@@H](OCCCCCCc2ccc(O)cc2O)[C@H](O)[C@@H](O)[C@@H]1O
class: MID
//
molecule: COc1cc(/C=N/NC(=O)c2ccc(OC)c(OC)c2)ccc1O
class: HIGH
//
molecule: CC(=O)N1N=C(c2ccccc2O)CC1c1ccc(O)cc1 (stereo not given)
class: HIGH
//
molecule: OC[C@H]1O[C@@H](OCCCCCCCCCCc2ccc(O)cc2O)[C@H](O)[C@@H](O)[C@@H]1O
class: LOW
//
molecule: C/C(=N\NC(N)=S)c1ccc(N)cc1
class: MID
//
molecule: CC(C)[C@H]1C(=O)N2CCC[C@H]2c2cn(nn2)[C@@H](Cc2ccc(OCc3ccccc3)cc2)C(=O)N2CCC[C@H]2c2cn1nn2
class: HIGH
//
molecule: Oc1ccc(-c2nc3cc4c(cc3s2)CCC4)c(O)c1
class: LOW
//
molecule: Ic1ccc(-c2csc(N/N=C/c3cc4ccccc4s3)n2)cc1
class: HIGH
